# Tested on: AgRvs167
# Procedure text: SPOT peptide array binding signal intensity (averaged, normalized) (arbitrary units (background-subtracted, floor 0; scale differs between SH3 domains)); higher = stronger binding of the SH3 domain to the peptide
For each of the binders below, state its SPOT peptide array binding signal intensity.
Answers are plain numbers.

Entry "TSIEIPKRSPLRFTS" needs its SPOT peptide array binding signal intensity filled in; supply it.
2.33

Entry "AAHKTKPSIPPKKVE" needs its SPOT peptide array binding signal intensity filled in; supply it.
1

Entry "RTIRKLPLMSLSEYF" needs its SPOT peptide array binding signal intensity filled in; supply it.
3

Entry "DKSRPPRPPPKPLHL" needs its SPOT peptide array binding signal intensity filled in; supply it.
1.33

Entry "NMLSRPRLAKLPSIR" needs its SPOT peptide array binding signal intensity filled in; supply it.
4.33

For the 6 binders below, give their SPOT peptide array binding signal intensity values.
1. WTQRRGPLVVYAEDN
2. SPLGAPPPPPHKDHL
3. KRRAPPPVPKKPSSR
4. LYEAMPPTLPHRDWK
5. LLRRTIPKRPFYHVL
6. SSTPTTPERPKRKSG

[1.17, 2.83, 106, 30.2, 4.5, 18.3]

For the 2 binders below, give their SPOT peptide array binding signal intensity values.
1. YLTRPLPSTPNEDSR
2. VRVKKRPLIRPLNSS

[404, 2.33]

Entry "RRRIAYPFYPFKKLG" needs its SPOT peptide array binding signal intensity filled in; supply it.
6.5

From: the supplement of paper PMC4466140
